Please provide measured viability, T/C for the entries that follow.
Test system: 699152-130-R-J1-PDC complex spheroid viability;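 further: spheroids exposed to agents for 7 days before viability reading; percent of DMSO vehicle control viability so 100% = vehicle and 0% = no viable signal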
protocol notes: Anticancer human tumor 699152-130-R-J1-PDC patient-derived pancreatic carcinoma cell line growth inhibition [POLQ]
condition summary: second compound 10 µM; first compound 1 µM; hits give low values

## Input Given O=c1[nH]cc(F)c(=O)[nH]1 + Cc1cccc(N(C)C(=O)C2C(O)CCN2c2nc(C)cc(C(F)(F)F)c2C#N)c1 , state its recorded viability, T/C.
## Output 92.8%

## Input Please give the result for O=C(c1cc(Cc2n[nH]c(=O)c3ccccc23)ccc1F)N1CCN(C(=O)C2CC2)CC1 + Cc1cccc(N(C)C(=O)C2C(O)CCN2c2nc(C)cc(C(F)(F)F)c2C#N)c1 too.
## Output 84.9%

## Input Please give the result for CC1COCCN1c1cc(C2(S(C)(=N)=O)CC2)nc(-c2ccnc3[nH]ccc23)n1 (stereo unspecified) + Cc1cccc(N(C)C(=O)C2C(O)CCN2c2nc(C)cc(C(F)(F)F)c2C#N)c1 too.
## Output 85.8%

## Input Please give the result for C=CC(=O)N1CCN(c2nc(=O)n(-c3c(C)ccnc3C(C)C)c3nc(-c4c(O)cccc4F)c(F)cc23)C(C)C1 (stereo unspecified) + COC1C(OC(N)=O)C(O)C(Oc2ccc3c(O)c(NC(=O)c4ccc(O)c(CC=C(C)C)c4)c(=O)oc3c2C)OC1(C)C too.
## Output 110%

## Input Please give the result for CNCc1ccc(-c2[nH]c3cc(F)cc4c3c2CCNC4=O)cc1 + Nc1ccc(C#CCN(C(=O)Cc2ncc(C(F)(F)F)cc2C(F)(F)F)c2ccc(F)cc2)nn1 too.
## Output 107%

## Input Please give the result for Nc1ccn(C2OC(CO)C(O)C2(F)F)c(=O)n1 (stereo unspecified) + Cc1cccc(N(C)C(=O)C2C(O)CCN2c2nc(C)cc(C(F)(F)F)c2C#N)c1 too.
## Output 59.5%
